experiment: Single-dose escalation pharmacokinetics in volunteers; assay type: in vivo, human; settings: female, plasma; single oral dose 80 mg free base equivalent, females; human; mean, n = 6
Quantity name: MRT (h)
Supply the numeric figure in h, leaving out any unit text.

Quick one: MRT for CS(=O)(=O)O.Cc1nc(N(C)C(=O)Cc2ccc(-c3ccccn3)cc2)sc1S(N)(=O)=O [mono mesylate monohydrate salt] ?
77

---

test: Single-dose escalation pharmacokinetics in volunteers; type: in vivo, human; settings: plasma; single oral dose 5 mg free base equivalent; human; median, n = 6; read-out: tmax
Quantity name: Tmax
Units required after the number.

Quick one: Tmax for CS(=O)(=O)O.Cc1nc(N(C)C(=O)Cc2ccc(-c3ccccn3)cc2)sc1S(N)(=O)=O [mono mesylate monohydrate salt] ?
4 h

---

test: Single-dose escalation pharmacokinetics in volunteers; assay type: in vivo, human; conditions: plasma; single oral dose 480 mg free base equivalent; human; mean, n = 6
Quantity name: MRT (h)
Supply the numeric figure in h, leaving out any unit text.

Quick one: MRT for CS(=O)(=O)O.Cc1nc(N(C)C(=O)Cc2ccc(-c3ccccn3)cc2)sc1S(N)(=O)=O [mono mesylate monohydrate salt] ?
72

---

test: Single-dose escalation pharmacokinetics in volunteers; assay type: in vivo, human; conditions: plasma; single oral dose 240 mg free base equivalent; human; median, n = 6; read-out: tmax
Quantity name: Tmax (h)
Supply the numeric figure in h, leaving out any unit text.

Quick one: Tmax for CS(=O)(=O)O.Cc1nc(N(C)C(=O)Cc2ccc(-c3ccccn3)cc2)sc1S(N)(=O)=O [mono mesylate monohydrate salt] ?
4

---

test: Single-dose escalation pharmacokinetics in volunteers; format: in vivo, human; conditions: female; single oral dose 80 mg free base equivalent, females; human; mean, n = 6; free base in plasma
Quantity name: AUC(0-inf)
Units required after the number.

Quick one: AUC(0-inf) for CS(=O)(=O)O.Cc1nc(N(C)C(=O)Cc2ccc(-c3ccccn3)cc2)sc1S(N)(=O)=O [mono mesylate monohydrate salt] ?
96200 ng·h/mL
